- assaySystem: Human CD117 (c-kit), cell-surface expressed (human, UniProt P10721 26-976)
- Sequence (P10721 26-976 limits assumed): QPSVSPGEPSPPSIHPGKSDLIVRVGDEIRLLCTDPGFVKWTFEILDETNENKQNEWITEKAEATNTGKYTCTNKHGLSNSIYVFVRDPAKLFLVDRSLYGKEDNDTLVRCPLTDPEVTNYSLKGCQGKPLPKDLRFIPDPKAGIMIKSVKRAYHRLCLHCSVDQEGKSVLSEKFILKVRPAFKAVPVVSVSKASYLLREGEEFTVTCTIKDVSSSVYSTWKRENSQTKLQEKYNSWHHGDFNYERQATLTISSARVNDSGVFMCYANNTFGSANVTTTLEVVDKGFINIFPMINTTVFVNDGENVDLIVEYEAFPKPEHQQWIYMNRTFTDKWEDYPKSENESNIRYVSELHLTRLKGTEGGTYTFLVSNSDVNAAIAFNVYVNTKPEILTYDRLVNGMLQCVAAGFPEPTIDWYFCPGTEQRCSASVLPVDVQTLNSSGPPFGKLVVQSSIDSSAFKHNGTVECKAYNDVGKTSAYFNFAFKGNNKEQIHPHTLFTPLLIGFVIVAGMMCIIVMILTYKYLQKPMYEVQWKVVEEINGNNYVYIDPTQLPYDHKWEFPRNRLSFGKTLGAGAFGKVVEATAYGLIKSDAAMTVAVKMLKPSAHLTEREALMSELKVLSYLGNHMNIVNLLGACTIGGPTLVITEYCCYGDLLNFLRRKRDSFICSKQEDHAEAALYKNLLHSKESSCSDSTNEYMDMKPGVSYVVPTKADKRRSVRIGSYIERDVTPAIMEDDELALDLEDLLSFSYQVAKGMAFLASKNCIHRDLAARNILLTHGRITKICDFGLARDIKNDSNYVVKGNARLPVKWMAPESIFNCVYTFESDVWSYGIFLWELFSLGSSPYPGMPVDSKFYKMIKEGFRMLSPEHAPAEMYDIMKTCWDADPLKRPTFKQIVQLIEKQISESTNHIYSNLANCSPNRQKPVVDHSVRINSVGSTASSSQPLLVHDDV
- protocolNotes: cell-based or functional assay

binder | Normalised uptake (B max) in %, ADCT (%)
3C2 IgA2 anti-CD117 antibody (Example 8) (antibody, V domains shown) VH: EVQLAESGGDLVQPGGSLRLSCAASGFTFSSYAMSWVRQAPGKGLEWVSAISGSGGSTYYADSVKGRFTISRDNSKNTLYLQMNSLRAEDTAIYYCARDLRVYAMEAFDIWGQGTMVTVSS VL: SYELTQDPAVSVALGQTVRITCQGDSLRDYYANWFQQKPGQAPLLVIFYDSDRPSGIPERFSGSNSGNTATLTISRVEAGDEADYYCQAWDSSSDHWVFGGGTKL | 3.38
4A2 IgA2 anti-CD117 antibody (Example 8) (antibody, V domains shown) VH: EVQLLESGGGLVQPGGSLRLSCAASGFTFSDYGMSWVRQAPGKGLEWVSAIGYGGGGKYYADSVKGRFTISRDNSKNTLYLQMNSLRAEDTAVYYCAKDTWWLAGLFDYWGQGTLVTVSS VL: EIVLTQSPGTLSLSPGKRATLSCRASQSVSNSYLAWYQQKPGQPPKLLIYWASTRESGVPDRFSGSGSGTDFTLTISSLQAEDVAVYYCQQYYSTPLTFGGGTKVEIKR | 95.3
3B2 IgA2 anti-CD117 antibody (Example 8) (antibody, V domains shown) VH: QVQLQESGPGLVKPSETLSLTCTVSGYSISSGYYWGWIRQPPGKGLEWIGSIYHSGSTYYNPSLKSRVTISVDTSKNQFSLKLSSVTAADTAVYYCARVGVRYFDWLLYGAFDIWGQGTMVTVSS VL: SYELTQPPSVSVSPGQTATITCSGDKLGETYVHWYQHQSGQSPILVVYQDFKRPSGIPERFSGSNSGNTATLTISGTQAMDEADYYCQAWDSSTAVFGGGTKL | 42.7
3B3 IgA2 anti-CD117 antibody (Example 8) (antibody, V domains shown) VH: EVQLVESGGGVVQPGRSLRLSCAASGFTFSSYAMHWVRQAPGKGLEWVSVIYSGGSTYYADSVKGRFTISRDNSKNTLYLQMNSLRAEDTAVYYCARDSSGYRGDFDYWGQGTLVTVSS VL: SYELTQPPSVSVSPGQTASITCSGDKVGAKYVFWYQQKPGQSPVLVVYQDNKRPSGIPERFSGSNSGNTATLTISGTQAMDEADYYCQAWDSSTALYVFGTGTKV | 51.1
